Values compiled from PubChem BioAssay (NCI).

- Test system: LOX IMVI melanoma
- TEST PROTOCOL: NCI-60 one-dose screen, 48 h (100 = growth as untreated, 0 = no growth, -100 = all killed)
- TEST SETTINGS: 10 µM unless noted
This is part of a sample that, as a whole, favours compounds with a hit. Of some 83,000 tested, about 20% had one in any assay.
READOUT LABEL: growth (%)
# output: bare number, implied unit %

Previously resolved entries follow.
[
  {
    "COMPOUND": "O=C(Nc1ccc(N2CCOCC2)cc1)Nc1ccc2c(ccn2C(=O)c2cccc(F)c2)c1",
    "READOUT LABEL": "growth",
    "VALUE OBSERVED": 23
  },
  {
    "COMPOUND": "CC(Nc1ncnc2ccc(-c3cnc4cnccn34)cc12)c1ccccc1 (stereo not drawn)",
    "READOUT LABEL": "growth",
    "VALUE OBSERVED": 58.1
  }
]

Requested read-out: growth. Entry: `CCCCCc1ccc(S(=O)(=O)Nc2cc(-c3csc(N)n3)ccc2OC)cc1`
107
